Assay: Pharmacokinetics of AS and DHA in rat plasma after single and multiple intravenous AS injections (automated blood sampler, LC-MS/MS);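 note: blood drawn through a jugular vein catheter by an automated sampling system, plasma drug levels measured by LC-MS/MS with positive electrospray ionization against standard curves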
Format: in vivo, Sprague-Dawley rats
Conditions: male, Sprague-Dawley, rat, plasma, iv, 20 mg/kg, Chinese formulation (AS/NaHCO3), 20 mg/kg i.v. daily for 3 days, male rats, Period 1, Day 3
RECORDED ENDPOINT: clearance (L/h/kg)
The figure you give is taken to be in L/h/kg; do not add the unit.

Which clearance is listed for C[C@H]1[C@H](OC(=O)CCC(=O)O)O[C@@H]2O[C@@]3(C)CC[C@H]4[C@H](C)CC[C@@H]1[C@@]24OO3 [AS, artesunate] ?
34.2
